- test.system: rat NHE-3 (Rattus norvegicus)
- Construct: expressed in transfected cells; host or cells: Opossum kidney (OK) cells (ATCC), electroporated
- Sequence (P26433 29-831): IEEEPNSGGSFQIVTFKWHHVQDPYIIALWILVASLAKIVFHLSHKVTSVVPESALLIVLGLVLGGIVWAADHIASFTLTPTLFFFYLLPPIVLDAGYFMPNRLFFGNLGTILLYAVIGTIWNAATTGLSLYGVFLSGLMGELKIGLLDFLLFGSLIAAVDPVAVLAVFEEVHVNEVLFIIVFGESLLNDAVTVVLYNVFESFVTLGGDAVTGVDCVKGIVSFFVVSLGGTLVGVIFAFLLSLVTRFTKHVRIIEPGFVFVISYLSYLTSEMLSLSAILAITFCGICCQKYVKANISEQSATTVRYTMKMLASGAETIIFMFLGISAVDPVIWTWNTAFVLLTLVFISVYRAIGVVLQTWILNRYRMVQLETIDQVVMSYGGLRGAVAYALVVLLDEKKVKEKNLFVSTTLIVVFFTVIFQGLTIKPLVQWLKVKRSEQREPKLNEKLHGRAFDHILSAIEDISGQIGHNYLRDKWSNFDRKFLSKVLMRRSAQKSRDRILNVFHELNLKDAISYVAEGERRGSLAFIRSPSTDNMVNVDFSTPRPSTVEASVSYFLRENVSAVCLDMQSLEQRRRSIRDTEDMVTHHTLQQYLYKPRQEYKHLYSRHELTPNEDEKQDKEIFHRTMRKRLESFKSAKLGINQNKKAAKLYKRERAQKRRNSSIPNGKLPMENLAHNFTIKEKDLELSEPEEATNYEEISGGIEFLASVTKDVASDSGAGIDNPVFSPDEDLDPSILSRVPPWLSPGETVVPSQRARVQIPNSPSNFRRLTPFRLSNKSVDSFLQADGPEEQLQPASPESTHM
- run.description: Cell-based assay of NHE-3 activity (Pharmacological Test Example 1)
Can you tell me rat NHE-3 Average pIC50 for the items I'm about to list?

Consider the reported rat NHE-3 Average pIC50 for these compounds:
[
  {
    "compound": "CN1Cc2c(Cl)cc(Cl)cc2C(c2cccc(S(=O)(=O)NCCOCCOCCNC(=O)c3ccc(C(=O)NCCOCCOCCNS(=O)(=O)c4cccc(C5CN(C)Cc6c(Cl)cc(Cl)cc65)c4)cc3)c2)C1 (stereo not drawn)",
    "property.label": "rat NHE-3 Average pIC50",
    "result": "5 to 6"
  },
  {
    "compound": "CN1Cc2c(Cl)cc(Cl)cc2C(c2ccc(S(=O)(=O)NCCOCCOCCNC(=O)CCC(=O)NCCOCCOCCNS(=O)(=O)c3ccc(C4CN(C)Cc5c(Cl)cc(Cl)cc54)cc3)cc2)C1 (stereo not drawn)",
    "property.label": "rat NHE-3 Average pIC50",
    "result": ">7"
  }
]

Turning now to a further record.
Challenge: I have this compound here, CN1Cc2c(Cl)cc(Cl)cc2C(c2ccc(S(=O)(=O)NCCOCCOCCNC(=O)c3ccc(C(=O)NCCOCCOCCNS(=O)(=O)c4ccc(C5CN(C)Cc6c(Cl)cc(Cl)cc65)cc4)cc3)cc2)C1 (stereo not drawn) , and I need its recorded rat NHE-3 Average pIC50.
Response given: <5.0
